assay: Cmax in ICR mouse at 1 mg/kg,iv measured upto 24 hrs
Type: ADME, organism-based
Parameters: time < 24 hrs, dose 1 mg/kg, route iv
condition-label: in vivo
measured-property: Cmax (ng/mL)

smiles-representation | measured-property | meas-value
O=C(/C=C/c1ccc2c(c1)OC(F)(F)O2)N1CCN(C(=O)N2CCC2)CC1 | Cmax | 1000

###

AUC(0-t) at 24 h values, listed per item
assay: AUClast in ICR mouse at 10 mg/kg,po measured upto 24 hrs
Assay type: ADME, organism-based
Design: time < 24 hrs, dose 10 mg/kg, route po
condition-label: in vivo

smiles-representation | measure-unit | AUC(0-t) at 24 h
COc1ncc(C(=O)N2CCN(C(=O)/C=C/c3ccc4c(c3)OC(F)(F)O4)CC2)cn1 | ng·h/mL | 49700
O=C(/C=C/c1ccc2c(c1)OC(F)(F)O2)N1CCN(C(=O)N2CCC2)CC1 | ng·h/mL | 6840

Where these numbers come from: ChEMBL document CHEMBL5375977
